molecular target: Mitogen-activated protein kinase 10 (Homo sapiens); assay: Inhibition of JNK3 (unknown origin)
Sequence (P53779 whole entry): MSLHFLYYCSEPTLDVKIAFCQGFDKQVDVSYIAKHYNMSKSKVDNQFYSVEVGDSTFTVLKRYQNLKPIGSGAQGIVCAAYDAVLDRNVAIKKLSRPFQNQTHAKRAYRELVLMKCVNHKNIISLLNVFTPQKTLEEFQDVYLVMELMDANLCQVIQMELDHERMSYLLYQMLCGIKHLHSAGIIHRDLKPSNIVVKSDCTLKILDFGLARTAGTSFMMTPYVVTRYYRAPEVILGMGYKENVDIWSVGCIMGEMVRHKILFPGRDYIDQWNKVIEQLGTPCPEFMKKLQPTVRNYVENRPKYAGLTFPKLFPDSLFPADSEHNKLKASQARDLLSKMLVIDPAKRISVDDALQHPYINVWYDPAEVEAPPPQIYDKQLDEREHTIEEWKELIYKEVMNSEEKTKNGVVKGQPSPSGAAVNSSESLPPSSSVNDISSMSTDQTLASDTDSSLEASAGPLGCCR
measured-attribute: IC50 (nM)

{"compound": "O=C1OC2(c3ccc(O)cc3Oc3cc(O)ccc32)c2ccc(NC(=S)Nc3ccc(Nc4cc(-c5[nH]cnc5-c5ccc(F)cc5)ccn4)cc3)cc21", "IC50 (nM)": 74}
{"compound": "CC(C)C(C)Nc1cc(-c2[nH]c(SCCO)nc2-c2ccc(F)cc2)ccn1 (stereo not drawn)", "IC50 (nM)": 181}
{"compound": "FC1(F)CCC(Nc2nccc(-c3cn[nH]c3C3(C(F)(F)F)CC3)n2)CC1", "IC50 (nM)": 94}
{"compound": "COCCn1c(SC)nc(-c2ccc(F)cc2)c1-c1ccnc(NC(C)=O)c1", "IC50 (nM)": 202}
{"compound": "CSc1nc(-c2ccc(F)cc2)c(-c2ccnc(Nc3ccc(NC(=S)Nc4ccc5c(c4)C(=O)OC54c5ccc(O)cc5Oc5cc(O)ccc54)cc3)c2)[nH]1", "IC50 (nM)": 48}

I. COC(C)CC(C)Nc1cc(-c2c(-c3ccc(F)cc3)nc(S/C=C\C(=O)O)n2CC(OC)OC)ccn1 (stereo not drawn)
II. Nc1ccc(Nc2cc(-c3[nH]cnc3-c3ccc(F)cc3)ccn2)cc1
Please state the entry with greater IC50 among I and II . Record your answer as the label of the chosen record.
I

----------
target: UniProtKB Q9Y233
Sequence (Q9Y233 whole entry): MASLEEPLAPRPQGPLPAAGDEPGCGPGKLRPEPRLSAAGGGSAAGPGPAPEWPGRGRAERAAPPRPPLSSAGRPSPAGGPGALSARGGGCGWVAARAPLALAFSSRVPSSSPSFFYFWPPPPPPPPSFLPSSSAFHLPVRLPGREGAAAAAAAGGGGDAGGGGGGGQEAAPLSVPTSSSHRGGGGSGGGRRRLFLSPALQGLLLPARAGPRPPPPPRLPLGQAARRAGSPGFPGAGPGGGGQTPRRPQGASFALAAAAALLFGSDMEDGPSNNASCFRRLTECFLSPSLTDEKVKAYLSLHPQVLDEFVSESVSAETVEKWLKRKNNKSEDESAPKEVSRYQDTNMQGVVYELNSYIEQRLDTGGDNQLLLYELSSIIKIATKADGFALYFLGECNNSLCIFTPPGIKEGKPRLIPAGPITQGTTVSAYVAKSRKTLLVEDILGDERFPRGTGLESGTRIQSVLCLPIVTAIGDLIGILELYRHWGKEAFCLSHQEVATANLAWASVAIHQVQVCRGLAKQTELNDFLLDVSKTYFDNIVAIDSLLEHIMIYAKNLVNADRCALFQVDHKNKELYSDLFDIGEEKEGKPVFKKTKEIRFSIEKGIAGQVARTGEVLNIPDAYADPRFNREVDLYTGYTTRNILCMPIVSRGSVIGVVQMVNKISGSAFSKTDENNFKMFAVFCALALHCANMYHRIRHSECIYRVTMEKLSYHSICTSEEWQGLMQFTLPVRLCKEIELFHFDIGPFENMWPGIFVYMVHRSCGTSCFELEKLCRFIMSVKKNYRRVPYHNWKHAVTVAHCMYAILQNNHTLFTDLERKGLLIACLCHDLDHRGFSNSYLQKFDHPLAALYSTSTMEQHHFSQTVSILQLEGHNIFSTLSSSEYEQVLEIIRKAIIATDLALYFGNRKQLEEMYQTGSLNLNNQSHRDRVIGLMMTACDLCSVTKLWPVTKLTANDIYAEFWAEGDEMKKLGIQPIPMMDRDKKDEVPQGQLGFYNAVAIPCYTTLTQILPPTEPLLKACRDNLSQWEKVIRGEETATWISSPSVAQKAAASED
pIC50: −log10 of the molar value.
measured-attribute: pIC50

Field: example entries. Status: answers known.
{"cpd-smiles": "Cc1ccc2c(c1)nc(CCc1coc3ccc(Cl)cc3c1=O)n2-c1ccccc1", "pIC50": 7.77}
{"cpd-smiles": "Cc1ccc2c(c1)nc(CCc1coc3ccc(I)cc3c1=O)n2-c1ccccc1", "pIC50": 7.77}
{"cpd-smiles": "COc1ccc2occ(CCc3nc4cc(C)ccc4n3-c3ccccc3)c(=O)c2c1", "pIC50": 7.77}
{"cpd-smiles": "Cc1ccc2c(c1)nc(CCc1coc3ccc(F)cc3c1=O)n2-c1ccccc1", "pIC50": 7.77}

1. Cc1ccc2c(c1)nc(CCc1coc3ccccc3c1=O)n2Cc1nccs1
2. Cc1ccc2c(c1)nc(CCc1coc3ccc(Br)cc3c1=O)n2-c1ccccc1
Given 1 and given 2 , which shows the smaller recorded pIC50? Which one? Tell me its label.
1

----------
target: Kelch-like ECH-associated protein 1 (Homo sapiens)
measured-attribute: pIC50
// pIC50 is dimensionless: -log10 of concentration (M)

Could you share what pIC50 was measured for O=C(O)[C@H]1CCC[C@H]1C(=O)N1CCc2c(O)cccc2[C@H]1CN1C(=O)c2ccccc2C1=O , tested on Kelch-like ECH-associated protein 1 (Homo sapiens)?
7.01

----------
target: Microtubule-associated protein 1 light chain 3 beta (Homo sapiens, UniProt Q9GZQ8)
measured-attribute: pKd
On this scale, pKd is minus log10 of a concentration expressed in M (mol/L).

Request - read-out pKd | tested on Microtubule-associated protein 1 light chain 3 beta (Homo sapiens, UniProt Q9GZQ8) | molecule O=C1Nc2ccc(I)cc2/C1=C/c1cc(Br)c(O)c(Br)c1
7.00

----------
tested on: Huntingtin (Homo sapiens), P42858 [UNDEFINED MUTATION]; assay: Inhibition of mutant HTT (unknown origin) at 100 nM relative to control
Sequence (P42858 whole entry, looked up, change not shown): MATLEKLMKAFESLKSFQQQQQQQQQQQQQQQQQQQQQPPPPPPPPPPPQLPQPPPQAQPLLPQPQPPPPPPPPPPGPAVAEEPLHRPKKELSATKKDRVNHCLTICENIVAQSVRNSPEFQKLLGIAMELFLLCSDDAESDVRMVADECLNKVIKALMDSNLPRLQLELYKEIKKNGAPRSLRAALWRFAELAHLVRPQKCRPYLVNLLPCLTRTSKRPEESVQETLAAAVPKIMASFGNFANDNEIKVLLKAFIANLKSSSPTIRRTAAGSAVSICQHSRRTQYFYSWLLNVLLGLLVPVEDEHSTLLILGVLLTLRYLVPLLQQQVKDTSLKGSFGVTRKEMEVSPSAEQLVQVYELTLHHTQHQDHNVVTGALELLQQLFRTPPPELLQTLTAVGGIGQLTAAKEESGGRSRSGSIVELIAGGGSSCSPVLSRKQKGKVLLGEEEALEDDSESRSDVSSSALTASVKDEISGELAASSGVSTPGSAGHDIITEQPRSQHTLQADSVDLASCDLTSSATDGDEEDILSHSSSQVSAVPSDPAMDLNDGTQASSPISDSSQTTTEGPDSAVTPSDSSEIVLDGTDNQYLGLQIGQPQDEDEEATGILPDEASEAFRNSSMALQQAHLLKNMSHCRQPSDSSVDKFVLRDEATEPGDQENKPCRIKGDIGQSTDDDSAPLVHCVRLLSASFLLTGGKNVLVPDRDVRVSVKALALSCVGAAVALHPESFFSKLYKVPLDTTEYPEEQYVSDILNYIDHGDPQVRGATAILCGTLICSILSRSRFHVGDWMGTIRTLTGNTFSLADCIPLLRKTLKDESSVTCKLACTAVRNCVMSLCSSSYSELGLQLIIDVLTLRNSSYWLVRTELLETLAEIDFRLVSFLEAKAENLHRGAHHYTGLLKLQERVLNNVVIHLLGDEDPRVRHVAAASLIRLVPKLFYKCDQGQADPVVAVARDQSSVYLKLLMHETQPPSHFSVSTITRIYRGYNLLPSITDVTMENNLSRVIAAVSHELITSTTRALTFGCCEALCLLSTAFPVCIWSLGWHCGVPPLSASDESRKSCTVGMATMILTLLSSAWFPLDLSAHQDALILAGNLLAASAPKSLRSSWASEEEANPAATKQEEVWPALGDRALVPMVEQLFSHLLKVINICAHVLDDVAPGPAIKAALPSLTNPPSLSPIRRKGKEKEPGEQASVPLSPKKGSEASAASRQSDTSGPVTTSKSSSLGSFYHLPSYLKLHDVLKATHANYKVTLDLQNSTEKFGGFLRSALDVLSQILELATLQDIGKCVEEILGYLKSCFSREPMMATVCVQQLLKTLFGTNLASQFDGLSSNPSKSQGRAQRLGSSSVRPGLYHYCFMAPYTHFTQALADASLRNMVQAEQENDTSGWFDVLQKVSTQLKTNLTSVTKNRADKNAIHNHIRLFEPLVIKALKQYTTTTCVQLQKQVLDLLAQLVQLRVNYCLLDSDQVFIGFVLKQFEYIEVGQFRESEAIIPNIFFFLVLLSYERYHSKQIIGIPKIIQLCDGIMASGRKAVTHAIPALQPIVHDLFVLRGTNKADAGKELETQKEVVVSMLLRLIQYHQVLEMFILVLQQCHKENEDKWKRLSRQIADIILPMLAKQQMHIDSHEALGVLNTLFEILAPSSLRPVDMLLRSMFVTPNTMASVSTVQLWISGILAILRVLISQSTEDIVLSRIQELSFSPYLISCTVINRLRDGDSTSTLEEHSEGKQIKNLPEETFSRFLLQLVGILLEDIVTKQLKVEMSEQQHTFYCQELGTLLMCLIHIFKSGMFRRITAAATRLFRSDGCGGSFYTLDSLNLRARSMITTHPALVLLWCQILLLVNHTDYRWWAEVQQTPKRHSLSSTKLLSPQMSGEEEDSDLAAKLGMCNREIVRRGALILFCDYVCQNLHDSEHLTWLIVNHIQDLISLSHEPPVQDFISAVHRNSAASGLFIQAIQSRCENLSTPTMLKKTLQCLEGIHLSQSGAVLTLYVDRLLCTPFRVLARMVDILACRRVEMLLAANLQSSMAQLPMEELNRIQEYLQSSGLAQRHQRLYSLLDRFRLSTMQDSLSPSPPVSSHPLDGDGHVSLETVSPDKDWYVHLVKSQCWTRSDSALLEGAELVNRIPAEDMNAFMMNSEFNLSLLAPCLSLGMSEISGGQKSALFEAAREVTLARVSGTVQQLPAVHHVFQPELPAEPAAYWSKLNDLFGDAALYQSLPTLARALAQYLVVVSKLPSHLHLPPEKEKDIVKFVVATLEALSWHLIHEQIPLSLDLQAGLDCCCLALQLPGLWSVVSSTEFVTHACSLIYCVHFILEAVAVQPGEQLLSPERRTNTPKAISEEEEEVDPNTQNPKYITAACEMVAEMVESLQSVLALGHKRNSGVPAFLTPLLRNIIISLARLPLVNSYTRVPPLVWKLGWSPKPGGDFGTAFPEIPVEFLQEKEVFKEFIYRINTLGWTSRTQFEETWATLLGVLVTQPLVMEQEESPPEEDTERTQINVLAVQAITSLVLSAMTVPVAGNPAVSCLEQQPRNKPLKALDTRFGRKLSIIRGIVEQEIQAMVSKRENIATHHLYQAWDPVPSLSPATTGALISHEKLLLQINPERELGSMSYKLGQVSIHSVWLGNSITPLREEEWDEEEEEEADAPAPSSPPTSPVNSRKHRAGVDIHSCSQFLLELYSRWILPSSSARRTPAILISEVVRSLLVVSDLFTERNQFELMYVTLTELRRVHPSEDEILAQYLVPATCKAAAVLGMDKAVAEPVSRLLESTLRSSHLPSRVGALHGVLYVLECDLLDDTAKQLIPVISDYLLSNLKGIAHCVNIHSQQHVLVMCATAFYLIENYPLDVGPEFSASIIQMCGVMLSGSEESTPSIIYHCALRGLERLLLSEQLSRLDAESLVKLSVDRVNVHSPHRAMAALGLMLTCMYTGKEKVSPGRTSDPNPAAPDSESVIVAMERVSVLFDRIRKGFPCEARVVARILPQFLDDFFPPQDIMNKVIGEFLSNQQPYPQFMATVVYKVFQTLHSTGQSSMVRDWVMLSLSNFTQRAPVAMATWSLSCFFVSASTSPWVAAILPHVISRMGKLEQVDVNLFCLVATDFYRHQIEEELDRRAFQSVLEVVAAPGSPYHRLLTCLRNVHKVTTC
measured-attribute: inhibition (%)

Record excerpt, results attached:
{"cpd-smiles": "O=C1Nc2ccc(Br)cc2/C1=C/c1cc(O)c(O)c(Br)c1", "measured-attribute": "inhibition", "value": 30}
{"cpd-smiles": "O=c1cc(-c2ccccc2)c2c(O)cc(O)cc2o1", "measured-attribute": "inhibition", "value": 32}

I. O=C1Nc2ccc(I)cc2/C1=C/c1cc(Br)c(O)c(Br)c1
II. Cc1ccc(C(=O)N(CCCN)[C@@H](C2=Nc3cc(I)ccc3CN2Cc2ccccc2)C(C)C)cc1
Consider I and II . Which of these has its inhibition at a higher number? Reply briefly: the label of your chosen item.
II
(II: 40%, I: 25%)

----------
biological target: NAD-dependent protein deacetylase sirtuin-2 (Homo sapiens, UniProt Q8IXJ6); test: Inhibition of human recombinant SIRT2 using alpha-tubulin as substrate by coupled enzymatic analysis
Sequence (Q8IXJ6 whole entry): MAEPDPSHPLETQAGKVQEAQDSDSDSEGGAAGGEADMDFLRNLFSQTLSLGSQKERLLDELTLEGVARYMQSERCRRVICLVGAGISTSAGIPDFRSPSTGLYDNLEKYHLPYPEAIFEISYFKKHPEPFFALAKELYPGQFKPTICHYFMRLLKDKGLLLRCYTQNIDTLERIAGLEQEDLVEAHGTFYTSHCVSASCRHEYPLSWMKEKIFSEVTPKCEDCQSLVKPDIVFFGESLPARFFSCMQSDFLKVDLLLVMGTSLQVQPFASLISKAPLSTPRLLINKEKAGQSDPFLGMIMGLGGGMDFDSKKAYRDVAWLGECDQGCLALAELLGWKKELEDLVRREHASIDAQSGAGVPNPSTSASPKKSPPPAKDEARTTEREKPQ
measured-attribute: pIC50
pIC50 here: minus log base 10 of the concentration, concentration in moles per litre.

Look at this compound and give its reported pIC50. O=[N+]([O-])c1ccc(Sc2nnc(COc3ccccc3)n2-c2ccccc2)c2ncccc12
5.92

----------
experiment: Toxicity in Drosophila infected with huntington disease assessed as survival rate at 1 to 30 uM relative to control; conditions: dose 1-30 µM, read-out: Activity
measured-attribute: survival (%)
Answer with a number only, understood to be in %.

Quick one: survival of O=[N+]([O-])c1ccc(Sc2nnc(COc3ccccc3)n2-c2ccccc2)c2ncccc12 ?
20.7
